- System tested: bradykinin 1 receptor (B1R) of the rat (Rattus norvegicus)
- Construct: expressed in transfected cells; host or cells: CHO K1 cells
- Sequence (P97583 1-337): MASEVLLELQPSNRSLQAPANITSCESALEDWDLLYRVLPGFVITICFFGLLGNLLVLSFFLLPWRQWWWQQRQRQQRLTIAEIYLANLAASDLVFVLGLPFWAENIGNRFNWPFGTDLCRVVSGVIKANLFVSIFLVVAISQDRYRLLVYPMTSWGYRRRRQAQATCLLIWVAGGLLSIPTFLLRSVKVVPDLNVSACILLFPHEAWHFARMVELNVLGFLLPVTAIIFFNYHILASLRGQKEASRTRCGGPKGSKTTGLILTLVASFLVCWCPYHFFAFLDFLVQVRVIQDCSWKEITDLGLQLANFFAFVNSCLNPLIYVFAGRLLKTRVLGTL
- Test: Functional investigation on the rat bradykinin 1 receptor (B1R), Ca2+ FLIPR assay in CHO K1 rB1R cells
- Assay type: cell-based
- Condition context: B1R antagonism rat; test substance 10 μM; Ca2+ FLIPR, CHO K1 rB1R cells
Measured attribute: B1R Ant. r [10 μM] % Inhibition (%)
Write the value in % as a bare number.

Consider the following illustrative entries.
1) COc1cc(C)c(S(=O)(=O)N2CCC(OCC(=O)NCCC3CCC(C(c4ccc(Cl)cc4)N(C)C)CC3)C2)c(C)c1 (stereo not shown) ... 78
2) COc1cc(C)c(S(=O)(=O)N(CCOCC(=O)NCCC2CCC(C(c3ccc(F)cc3)N(C)C)CC2)Cc2ccccc2)c(C)c1 (stereo not shown) ... 30
3) CN(C)C(CCc1ccccc1)C1CCC(CNC(=O)COC2CCCN(S(=O)(=O)c3ccccc3)C2)CC1 (stereo not shown) ... 12
4) CN(C)C(c1ccc(Cl)cc1)C1CCC(CCNC(=O)COC2CCN(S(=O)(=O)c3ccc(F)cc3)C2)CC1 (stereo not shown) ... 31
5) COc1ccc(S(=O)(=O)N2CCCCC2CCOCC(=O)NCC2CCC(C(c3ccc(F)cc3)N(C)C)CC2)cc1 (stereo not shown) ... 35

So what's the measured B1R Ant. r [10 μM] % Inhibition for this one? COc1cc(C)c(S(=O)(=O)N(CCOCC(=O)NCC2CCC(C(c3ccc(F)cc3)N(C)C)CC2)Cc2ccccc2)c(C)c1C (stereo not shown)
−16

Bench note: what B1R Ant. r [10 μM] % Inhibition did COc1ccc(S(=O)(=O)N2CCC(OCC(=O)NCC3CCC(C(c4ccc(Cl)cc4)N(C)C)CC3)C2)cc1OC (stereo not shown) show?
9

###

- System tested: human μ opiate receptor (Homo sapiens, UniProt P35372)
- Construct: purchased PerkinElmer Life Sciences, Zaventem, Belgium RB-HOM; host or cells: CHO-K1 cells (membrane preparation)
- Sequence (P35372 whole entry): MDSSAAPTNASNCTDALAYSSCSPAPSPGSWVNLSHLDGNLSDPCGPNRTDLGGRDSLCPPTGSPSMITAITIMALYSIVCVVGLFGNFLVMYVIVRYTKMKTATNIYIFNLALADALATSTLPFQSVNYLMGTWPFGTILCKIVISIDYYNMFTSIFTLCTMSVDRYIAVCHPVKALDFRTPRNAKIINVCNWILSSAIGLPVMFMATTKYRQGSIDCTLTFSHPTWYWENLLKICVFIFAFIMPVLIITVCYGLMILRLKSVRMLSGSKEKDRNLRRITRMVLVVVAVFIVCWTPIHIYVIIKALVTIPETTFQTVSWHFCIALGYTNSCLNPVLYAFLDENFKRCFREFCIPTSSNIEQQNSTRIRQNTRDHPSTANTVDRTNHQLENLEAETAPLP
- Test: Affinity for the human μ opiate receptor ([3H]-naloxone displacement, CHO-K1 receptor membrane preparation, SPA)
- Assay type: binding
- Condition context: test concentration of 1 μM; read-out: μ (binding on the μ opioid receptor, % inhibition)
Measured attribute: inhibition at 1 µM (%)
Express your answer in %, writing the number without its unit.

Entry under review: CN(C)C(c1ccccc1)C1CCC(CNC(=O)COCCN(C)S(=O)(=O)c2ccc(F)cc2)CC1 (stereo not drawn) . Reported inhibition at 1 µM?
82

Name the reported inhibition at 1 µM value associated with the compound COc1cc(C)c(S(=O)(=O)N(C)CCOCC(=O)NCC2CCC(C(c3cccc(F)c3)N(C)C)CC2)c(C)c1C (stereo not drawn)
88

For CN(C)C(c1ccccc1)C1CCC(NC(=O)COCCN(Cc2ccccc2)S(=O)(=O)c2ccccc2)CC1 (stereo not drawn) , what is its reported inhibition at 1 µM?
95

Reported inhibition at 1 µM, compound COc1cc(C)c(S(=O)(=O)N2CCC(CCOCC(=O)NC3CCC(C(c4ccc(F)cc4)N(C)C)CC3)CC2)c(C)c1C (stereo not drawn) : ____
81

Quick one: inhibition at 1 µM of COc1cc(C)c(S(=O)(=O)N(C)CCOCC(=O)NC2CCC(C(c3cccc(F)c3)N(C)C)CC2)c(C)c1C (stereo not drawn) ?
85

What value of measured inhibition at 1 µM is listed for COc1cc(C)c(S(=O)(=O)N2CCC(CCOCC(=O)NCC3CCC(C(c4ccccc4)N(C)C)CC3)CC2)c(C)c1C (stereo not drawn) ?
88

Can you look up the measured inhibition at 1 µM of COc1ccc(S(=O)(=O)N2CCCCC2COCC(=O)NC2CCC(C(c3ccccc3)N(C)C)CC2)cc1 (stereo not drawn) for me?
83
